- assay: In vivo pharmacokinetic studies in rats, 1 hr intravenous infusion
- study-conditions: male, Sprague-Dawley, rat, in vivo, iv, 30 mg/kg
quantity-name: AUC(0-inf) (ng·h/mL)
Numbers only, in ng·h/mL.

Inquiry: AUC(0-inf) lookup needed for "Cn1c(=O)ccc2ccc(F)c(CCNC[C@H]3CN(c4cnc5c(n4)NC(=O)CO5)C(=O)O3)c21" , thanks.
Reply text: 14700

###

Reported MIC, Escherichia coli ATCC 25922.
Write down the value, and be sure its unit follows.

The following compounds have reported results that may help.
[[record]]
compound = "Cn1c(=O)cnc2ccc(F)c(CCNC[C@H]3CN(c4ccc5c(n4)NC(=O)CO5)C(=O)O3)c21"
readout_value = "0.03 µg/mL"

[[record]]
compound = "CCn1c(=O)ccc2ccc(F)c(CCNCC[C@H]3CN(c4cnc5c(n4)NC(=O)CO5)C(=O)O3)c21"
readout_value = "0.03 µg/mL"

[[record]]
compound = "O=C1COc2ccc(N3C[C@H](CNCCc4c(F)ccc5ncc(=O)n(CCO)c45)OC3=O)nc2N1"
readout_value = "0.06 µg/mL"

[[record]]
compound = "Cc1cc(=O)n(C)c2c(CCNC[C@H]3CN(c4cnc5c(n4)NC(=O)CO5)C(=O)O3)c(F)ccc12"
readout_value = "0.06 µg/mL"


I would be grateful if you could provide MIC for each of the following entries.
1. Cn1c(=O)ccc2ccc(F)c(CCCNC[C@@H]3CN(c4cnc5c(n4)NC(=O)CO5)C(=O)O3)c21
2. Cc1nc2ccc(F)c(CCNC[C@@H]3CN(c4ccc5c(n4)NC(=O)CO5)C(=O)O3)c2n(C)c1=O
3. Cc1nc2ccc(F)c(CCNC[C@H]3CN(c4ccc5c(n4)NC(=O)CO5)C(=O)O3)c2n(C)c1=O

Reply text:
["0.03 µg/mL", "0.125 µg/mL", "0.06 µg/mL"]
